# Experiment Description: Cell viability / 50% cytotoxic concentration, EZ-Cytox kit
# Condition Summary: African green monkey, CC50, Vero E6 cells; text and Fig. 1 (Fig. 1: 2 h treatment, then drug-free media 48 h)
Readout Kind: CC50 at 2 days

molecule `Cc1cc2nc3c(=O)[nH]c(=O)nc-3n(C[C@H](O)[C@H](O)[C@H](O)CO)c2cc1C` , CC50 at 2 days observed: > 100 µM

====

For each entry below, report its pIC50 value.
# System: SARS-CoV-2
# Experiment Description: microbe, parasite or virus in culture
# Assay type: cell-based
# Condition Summary: Vero E6 cells, MOI 0.01, compound together with virus for 2 h, titers at 48 h; Table S2; '-' = no significant antiviral effect; read-out: IC50
pIC50: −log10 of the molar value. Counter-ions that a name gives are not always drawn.

Nc1nc2c(ncn2[C@@H]2O[C@@H]3COP(=O)(O)O[C@H]4[C@@H](O)[C@H](n5cnc6c(N)ncnc65)O[C@@H]4COP(=O)(O)O[C@H]3[C@H]2O)c(=O)[nH]1 [cGAMP sodium salt]	< 4.00
Nc1ncnc2c1ncn2[C@@H]1O[C@H](CSCC[C@H](N)C(=O)O)[C@@H](O)[C@H]1O [S-Adenosyl-L-homocysteine (SAH), S-adenosyl-l-homocysteine]	< 4.00

Then there is this compound:
compound `C/C1=C2/N[C@H]([C@H](CC(N)=O)[C@@]2(C)CCC(=O)NC[C@@H](C)OP(=O)(O)O[C@H]2[C@@H](O)[C@@H](n3cnc4cc(C)c(C)cc43)O[C@@H]2CO)[C@]2(C)N=C(/C(C)=C3N=C(/C=C4N=C1[C@@H](CCC(N)=O)C\4(C)C)[C@@H](CCC(N)=O)[C@]\3(C)CC(N)=O)[C@@H](CCC(N)=O)[C@]2(C)CC(N)=O.C[C@H]1O[C@@H](n2cnc3c(N)ncnc32)[C@H](O)[C@@H]1O.[Co]` , pIC50 observed: < 4.00

The origin of these recorded values is paper PMC12373729.
